- protocolNotes: Tmax in ICR mouse at 1 mg/kg, iv single administration measured for 24 hrs post treatment by LC-MS/MS analysis
- Assay type: ADME, organism-based
- conditionDetails: in vivo
quantity: Tmax

• C=C(c1cc(OC)c(OC)c(OC)c1)c1ccc(OC)c(O)c1NC(=O)CO = 4.8 min

---

- protocolNotes: Half life in ICR mouse at 10 mg/kg, po single administration measured for 24 hrs post treatment by LC-MS/MS analysis
- Type: ADME, organism-based
- conditionDetails: in vivo
quantity: half-life (h)

* C=C(c1cc(OC)c(OC)c(OC)c1)c1ccc(OC)c(O)c1NC(=O)CO | 2.12

---

- protocolNotes: Cytotoxicity against HUVEC cells assessed as reduction in cell viability
- Type: toxicity, cell-based
- conditionDetails: human
pIC50: −log10 of the molar value.
quantity: pIC50

* C=C(c1cc(OC)c(OC)c(OC)c1)c1ccc(OC)c(O)c1NC(=O)CO | 7.40

Source of measurements: ChEMBL document CHEMBL5154799
